Each record here notes measured IC50.
# Assay Procedure: Cytotoxicity against human HCT116/VM46 cells assessed as reduction in cell viability after 72 hrs by phosphatase assay
# Format: cell-based
# Condition Summary: HCT-116/VM46, 72 h
Give the value, in units of µM, as a plain number.

# annotated cases, reported IC50 shown
Input Smiles: CC[C@]1(NC(=O)/C=C/c2ccoc2)C[C@H]2CN(CCc3c([nH]c4ccccc34)[C@@](C(=O)OC)(c3cc4c(cc3OC)N(C)[C@H]3[C@@](O)(C(=O)OC)[C@H](OC(C)=O)[C@]5(CC)C=CCN6CC[C@]43[C@@H]65)C2)C1
Value Observed: 0.02
//
Input Smiles: CC[C@]1(NC(=O)C2CCSCC2)C[C@H]2CN(CCc3c([nH]c4ccccc34)[C@@](C(=O)OC)(c3cc4c(cc3OC)N(C)[C@H]3[C@@](O)(C(=O)OC)[C@H](OC(C)=O)[C@]5(CC)C=CCN6CC[C@]43[C@@H]65)C2)C1
Value Observed: 5.2
//
Input Smiles: CC[C@]1(NC(=O)c2nc3ccccc3o2)C[C@H]2CN(CCc3c([nH]c4ccccc34)[C@@](C(=O)OC)(c3cc4c(cc3OC)N(C)[C@H]3[C@@](O)(C(=O)OC)[C@H](OC(C)=O)[C@]5(CC)C=CCN6CC[C@]43[C@@H]65)C2)C1
Value Observed: 0.19

Turning now to a further molecule:
Lookup result for CC[C@]1(NC(=O)c2ccc3ccoc3c2)C[C@H]2CN(CCc3c([nH]c4ccccc34)[C@@](C(=O)OC)(c3cc4c(cc3OC)N(C)[C@H]3[C@@](O)(C(=O)OC)[C@H](OC(C)=O)[C@]5(CC)C=CCN6CC[C@]43[C@@H]65)C2)C1 ; measured IC50: 0.0065

====

# Assay Procedure: Antiproliferative activity against human HCT116/VP35 cells after 72 hrs by phosphatase assay
# Assay type: functional, cell-based
# Condition Summary: HCT-116, 72 h
Observable: log10 IC50 (log10 of the value in nM)
A value of 2 here means IC50 of 100 in nM, since values are log10.

# annotated cases, reported log10 IC50 shown
Molecule: CC[C@]1(NC(=O)c2ccc3c(c2)CCCC3)C[C@H]2CN(CCc3c([nH]c4ccccc34)[C@@](C(=O)OC)(c3cc4c(cc3OC)N(C)[C@H]3[C@@](O)(C(=O)OC)[C@H](OC(C)=O)[C@]5(CC)C=CCN6CC[C@]43[C@@H]65)C2)C1
log10 IC50: 0.79
//
Molecule: CC[C@]1(NC(=O)c2ccc(C)c(C)c2)C[C@H]2CN(CCc3c([nH]c4ccccc34)[C@@](C(=O)OC)(c3cc4c(cc3OC)N(C)[C@H]3[C@@](O)(C(=O)OC)[C@H](OC(C)=O)[C@]5(CC)C=CCN6CC[C@]43[C@@H]65)C2)C1
log10 IC50: 0.76
//
Molecule: CC[C@]1(NC(=O)c2ccc3c(c2)CCCO3)C[C@H]2CN(CCc3c([nH]c4ccccc34)[C@@](C(=O)OC)(c3cc4c(cc3OC)N(C)[C@H]3[C@@](O)(C(=O)OC)[C@H](OC(C)=O)[C@]5(CC)C=CCN6CC[C@]43[C@@H]65)C2)C1
log10 IC50: 0.15
//
Molecule: CC[C@]1(O)C[C@@H]2CN(CCc3c([nH]c4ccccc34)[C@@](C(=O)OC)(c3cc4c(cc3OC)N(C)[C@H]3[C@@](O)(C(=O)OC)[C@H](OC(C)=O)[C@]5(CC)C=CCN6CC[C@]43[C@@H]65)C2)C1 [VINBLASTINE]
log10 IC50: 1.57

Turning now to a further molecule:
Lookup result for CC(=O)O[C@H]1C(=O)[C@@]2(C)[C@H]([C@H](OC(=O)c3ccccc3)[C@]3(O)C[C@H](OC(=O)[C@H](O)[C@@H](NC(=O)c4ccccc4)c4ccccc4)C(C)=C1C3(C)C)[C@]1(OC(C)=O)CO[C@@H]1C[C@@H]2O [PACLITAXEL] ; measured log10 IC50: 0.80
